Parameter: inhibition. Scope: all listed entries.
# tgt: Homeodomain-interacting protein kinase 1 (Homo sapiens) (UniProt Q86Z02)
# Sequence (Q86Z02 whole entry, looked up): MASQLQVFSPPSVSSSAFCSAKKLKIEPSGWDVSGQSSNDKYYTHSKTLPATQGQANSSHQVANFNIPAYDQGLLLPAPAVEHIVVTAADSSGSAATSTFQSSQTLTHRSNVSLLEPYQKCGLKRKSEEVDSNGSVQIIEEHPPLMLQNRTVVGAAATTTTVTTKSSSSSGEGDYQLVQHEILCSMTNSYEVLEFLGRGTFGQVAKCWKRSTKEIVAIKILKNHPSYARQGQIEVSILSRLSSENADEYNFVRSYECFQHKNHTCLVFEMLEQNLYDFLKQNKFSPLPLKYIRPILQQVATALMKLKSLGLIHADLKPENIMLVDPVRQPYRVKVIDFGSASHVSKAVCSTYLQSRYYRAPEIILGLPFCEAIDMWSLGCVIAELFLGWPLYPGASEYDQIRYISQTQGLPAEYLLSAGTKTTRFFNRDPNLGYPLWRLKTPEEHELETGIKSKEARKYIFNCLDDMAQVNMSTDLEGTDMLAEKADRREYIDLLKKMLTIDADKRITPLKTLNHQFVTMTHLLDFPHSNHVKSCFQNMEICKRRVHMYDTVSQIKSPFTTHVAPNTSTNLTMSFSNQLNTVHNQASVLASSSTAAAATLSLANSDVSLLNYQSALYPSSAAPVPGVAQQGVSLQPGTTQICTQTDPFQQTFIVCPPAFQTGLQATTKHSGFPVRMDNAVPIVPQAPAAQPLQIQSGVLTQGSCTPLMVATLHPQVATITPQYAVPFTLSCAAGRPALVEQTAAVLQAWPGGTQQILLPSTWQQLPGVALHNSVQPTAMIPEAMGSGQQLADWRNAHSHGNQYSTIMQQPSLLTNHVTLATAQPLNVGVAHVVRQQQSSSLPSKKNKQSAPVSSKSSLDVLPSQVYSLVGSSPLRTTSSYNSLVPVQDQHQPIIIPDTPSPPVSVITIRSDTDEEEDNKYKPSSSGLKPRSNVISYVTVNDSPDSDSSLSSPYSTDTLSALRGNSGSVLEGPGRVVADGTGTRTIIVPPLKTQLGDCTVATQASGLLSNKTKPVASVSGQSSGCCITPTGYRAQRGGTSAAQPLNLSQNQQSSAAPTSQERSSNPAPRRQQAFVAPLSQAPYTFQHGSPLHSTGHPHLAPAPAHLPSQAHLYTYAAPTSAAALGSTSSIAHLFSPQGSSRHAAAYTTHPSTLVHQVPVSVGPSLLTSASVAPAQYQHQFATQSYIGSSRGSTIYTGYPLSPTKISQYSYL
# stated-conditions: at 0.1 µM
Write it as a number; the unit % goes unstated.

O=S(=O)(CCOCc1ccc(-c2ccc3ncnc(Nc4ccc(OCc5cccc(F)c5)c(Cl)c4)c3c2)o1)c1ccccc1 -2.8

// next item, inhibition requested
Reported inhibition of Cc1ccc(NC(=O)CC2CC2)cc1-c1ccc(C(=O)NCC2CC2)cc1 : -0.11

* * *

Parameter: inhibition. Scope: all listed entries.
# tgt: Protein kinase C gamma type (Homo sapiens)
# stated-conditions: at 0.1 µM
Write it as a number; the unit % goes unstated.

Use the examples below as a reference point.
Nc1nccc(-c2c(-c3ccc(F)cc3)nn3cc(C(F)(F)F)ccc23)n1 -1.38
O=S(=O)(CCOCc1ccc(-c2ccc3ncnc(Nc4ccc(OCc5cccc(F)c5)c(Cl)c4)c3c2)o1)c1ccccc1 0.84
c1ccc(Nc2ncc(-c3ccccc3)o2)cc1 2.57
COc1cccc(-n2ncc3c(N/N=C/c4ccc(S(C)(=O)=O)cc4)ncnc32)c1 1.86
Cc1ccc(Nc2ccnc(Nc3cccc(C(N)=O)c3)n2)cc1O 4.85

Considering C[C@@H](Oc1cc(-n2cnc3ccc(OC[C@@H](O)CO)cc32)sc1C(N)=O)c1ccccc1Cl , its inhibition with Protein kinase C gamma type (Homo sapiens) was recorded as -1.57

Considering Cc1cc(-c2ccccn2)cc(C)c1/C=C/c1cncc(-c2nn[nH]n2)c1 , its inhibition with Protein kinase C gamma type (Homo sapiens) was recorded as 1.57

Considering COc1cccc(-n2nc(C)c3c(N/N=C(\C)c4ccncc4)ncnc32)c1 , its inhibition with Protein kinase C gamma type (Homo sapiens) was recorded as 1.51

Considering O=C1Nc2ccccc2/C1=C/Nc1ccc2[nH]c(=O)[nH]c2c1 , its inhibition with Protein kinase C gamma type (Homo sapiens) was recorded as 2.03

Considering COc1cc2ncn(-c3cc(OCc4ccccc4S(C)(=O)=O)c(C#N)s3)c2cc1OC , its inhibition with Protein kinase C gamma type (Homo sapiens) was recorded as 1.77

* * *

# tgt: Serine/threonine-protein kinase D1 (Homo sapiens) (UniProt Q15139)
# Sequence (whole entry): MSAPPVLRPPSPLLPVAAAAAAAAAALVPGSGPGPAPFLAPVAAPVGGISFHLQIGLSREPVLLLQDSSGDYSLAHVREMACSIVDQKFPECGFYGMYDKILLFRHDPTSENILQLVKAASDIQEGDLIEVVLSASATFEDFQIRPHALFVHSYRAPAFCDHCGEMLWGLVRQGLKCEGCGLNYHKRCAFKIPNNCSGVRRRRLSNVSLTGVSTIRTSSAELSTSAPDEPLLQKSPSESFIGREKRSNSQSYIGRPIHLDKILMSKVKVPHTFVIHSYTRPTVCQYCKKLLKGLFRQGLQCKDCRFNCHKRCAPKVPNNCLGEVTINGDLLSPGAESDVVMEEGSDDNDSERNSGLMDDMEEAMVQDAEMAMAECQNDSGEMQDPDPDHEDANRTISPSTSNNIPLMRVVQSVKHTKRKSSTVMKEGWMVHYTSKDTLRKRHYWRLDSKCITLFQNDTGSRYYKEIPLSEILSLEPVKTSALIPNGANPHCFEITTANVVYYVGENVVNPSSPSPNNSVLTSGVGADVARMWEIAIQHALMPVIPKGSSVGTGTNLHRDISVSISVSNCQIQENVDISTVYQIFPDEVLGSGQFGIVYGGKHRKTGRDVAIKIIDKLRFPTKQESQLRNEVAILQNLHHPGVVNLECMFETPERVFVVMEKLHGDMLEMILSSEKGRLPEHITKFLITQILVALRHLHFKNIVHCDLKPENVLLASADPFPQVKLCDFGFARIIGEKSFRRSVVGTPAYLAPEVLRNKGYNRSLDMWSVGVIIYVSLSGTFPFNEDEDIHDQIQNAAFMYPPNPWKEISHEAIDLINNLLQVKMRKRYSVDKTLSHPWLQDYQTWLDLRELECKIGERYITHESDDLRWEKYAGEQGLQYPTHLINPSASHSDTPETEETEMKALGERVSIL
# stated-conditions: at 1 µM
recorded-endpoint: inhibition (%)
Write it as a number; the unit % goes unstated.

Use the examples below as a reference point.
Cc1ccc2c(-c3ccnc(Nc4ccc5c(c4)OCCO5)n3)c(-c3ccc(C(F)(F)F)cc3)nn2n1 3.32
CN(C)CCCn1c(-c2nonc2N)nc2cnccc21 7.59
NS(=O)(=O)c1cccc(-c2cc3ccncc3cc2OCc2ccccc2)c1 7.09

Reported inhibition of Cc1ccc(C(=O)NC2CC2)cc1-c1ccc2[nH]ncc2c1 : -2.68

Reported inhibition of O=C(Nc1ccc(Oc2ccc3[nH]c(NC(=O)c4ccco4)nc3c2)cc1)Nc1cc(C(F)(F)F)ccc1F : -2.46

Reported inhibition of COC(=O)c1cncc(/C=C/c2c(C)cc(O)cc2C)c1 : 5

* * *

Parameter: inhibition. Scope: all listed entries.
# tgt: Serine/threonine-protein kinase PLK1 (Homo sapiens) (UniProt P53350)
# Sequence (P53350 whole entry): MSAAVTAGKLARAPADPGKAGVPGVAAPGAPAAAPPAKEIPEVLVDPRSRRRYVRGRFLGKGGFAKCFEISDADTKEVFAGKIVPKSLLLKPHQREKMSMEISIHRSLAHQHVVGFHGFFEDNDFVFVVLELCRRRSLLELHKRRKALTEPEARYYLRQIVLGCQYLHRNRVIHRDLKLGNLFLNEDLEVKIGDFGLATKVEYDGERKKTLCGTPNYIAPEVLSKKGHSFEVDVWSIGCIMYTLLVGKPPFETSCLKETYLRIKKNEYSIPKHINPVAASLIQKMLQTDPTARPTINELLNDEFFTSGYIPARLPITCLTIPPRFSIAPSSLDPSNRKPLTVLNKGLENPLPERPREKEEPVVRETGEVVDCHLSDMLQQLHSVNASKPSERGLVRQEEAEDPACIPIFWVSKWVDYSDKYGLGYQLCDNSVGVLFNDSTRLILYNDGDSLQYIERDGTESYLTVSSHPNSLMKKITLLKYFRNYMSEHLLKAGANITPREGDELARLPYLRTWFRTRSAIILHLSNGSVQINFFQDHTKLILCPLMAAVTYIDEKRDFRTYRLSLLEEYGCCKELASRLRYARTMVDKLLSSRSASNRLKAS
# stated-conditions: at 0.1 µM
Write it as a number; the unit % goes unstated.

Use the examples below as a reference point.
CS(=O)(=O)CCNCc1nc(-c2ccc3ncnc(Nc4ccc(OCc5cccc(C(F)(F)F)c5)cc4)c3c2)cs1 1.34
COc1cc2ncnc(Nc3ccc4c(cnn4Cc4ccccc4)c3)c2cc1OC 3.61

// next item, inhibition requested
Reported inhibition of CN(C)C(=O)O[C@@H]1CN[C@@H](C#Cc2cc3ncnc(Nc4ccc(OCc5cccc(F)c5)c(Cl)c4)c3s2)C1 : 4.55

* * *

# tgt: Protein kinase C iota type (Homo sapiens)
# stated-conditions: at 0.1 µM
# Description: GSK_PKIS: PKC-iota mean inhibition at 0.1 uM [Nanosyn]
recorded-endpoint: inhibition (%)
Write it as a number; the unit % goes unstated.

Use the examples below as a reference point.
NS(=O)(=O)c1ccc(N/N=C2\C(=O)Nc3ccc(Cl)cc32)cc1 1.02
Cc1ccc(C(=O)NC2CC2)cc1-c1ccc2[nH]ncc2c1 -1.83
OCc1ccc(-c2nc(-c3ccccn3)c(-c3ccc4c(c3)OCO4)[nH]2)cc1 2.1
[O-][S+]1CCN(Cc2ccc(-c3ccc4ncnc(Nc5ccc(OCc6ccccc6)c(Cl)c5)c4c3)o2)CC1 1.72
CCn1c(-c2nonc2N)nc2ccc(F)cc21 2.23
C[C@@H](Oc1cc(-n2cnc3ccc(OC[C@@H](O)CO)cc32)sc1C(N)=O)c1ccccc1Cl -0.24
NC(=O)c1cccc(Nc2nccc(Nc3cccc(F)c3)n2)c1 -0.38
CS(=O)(=O)CCNCc1nc(-c2ccc3ncnc(Nc4ccc(OCc5cccc(C(F)(F)F)c5)cc4)c3c2)cs1 -0.91

Reported inhibition of c1ccc(Nc2ncc(-c3ccccc3)o2)cc1 : 1.64

Reported inhibition of NS(=O)(=O)c1ccc(NC=C2C(=O)Nc3ccc4ncsc4c32)cc1 : 2.56

* * *

# tgt: Inhibitor of nuclear factor kappa-B kinase subunit alpha (Homo sapiens)
# Sequence (whole entry): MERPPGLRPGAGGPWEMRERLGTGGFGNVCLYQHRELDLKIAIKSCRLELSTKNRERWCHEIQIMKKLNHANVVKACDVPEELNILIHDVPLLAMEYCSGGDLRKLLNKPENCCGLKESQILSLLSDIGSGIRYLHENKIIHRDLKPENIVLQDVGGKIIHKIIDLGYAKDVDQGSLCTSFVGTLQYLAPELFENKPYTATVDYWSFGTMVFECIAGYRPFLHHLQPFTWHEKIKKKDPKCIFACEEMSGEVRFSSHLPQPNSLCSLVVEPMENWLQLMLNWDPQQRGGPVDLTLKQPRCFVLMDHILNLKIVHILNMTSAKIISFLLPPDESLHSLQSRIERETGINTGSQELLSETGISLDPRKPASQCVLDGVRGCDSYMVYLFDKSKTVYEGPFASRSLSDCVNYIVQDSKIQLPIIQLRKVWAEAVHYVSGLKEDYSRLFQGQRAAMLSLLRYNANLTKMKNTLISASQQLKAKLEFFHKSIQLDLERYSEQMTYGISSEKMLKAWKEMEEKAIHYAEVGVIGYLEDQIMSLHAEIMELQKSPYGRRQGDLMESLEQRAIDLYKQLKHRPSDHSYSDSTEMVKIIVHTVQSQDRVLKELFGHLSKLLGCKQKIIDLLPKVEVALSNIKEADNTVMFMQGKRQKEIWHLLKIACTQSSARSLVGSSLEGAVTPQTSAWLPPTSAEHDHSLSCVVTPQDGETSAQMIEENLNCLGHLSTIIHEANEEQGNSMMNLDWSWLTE
# stated-conditions: at 1 µM
recorded-endpoint: inhibition (%)
Write it as a number; the unit % goes unstated.

Use the examples below as a reference point.
COc1cccc(-n2ncc3c(N/N=C/c4ccc(S(C)(=O)=O)cc4)ncnc32)c1 -0.62
NS(=O)(=O)c1ccc(NC=C2C(=O)Nc3ccc4ncsc4c32)cc1 23.5
O=C1Nc2ccccc2/C1=C/Nc1ccc2[nH]c(=O)[nH]c2c1 10.2
Nc1nccc(-c2c(-c3ccc(F)cc3)ncn2CCCN2CCOCC2)n1 5.27
Nc1ccc(C#Cc2cncnc2Nc2ccc(OCc3cccc(F)c3)c(Cl)c2)cc1 2.27
Oc1cccc(-c2nc(-c3ccccc3)[nH]c2-c2ccncc2)c1 5.47
CN(C)C(=O)O[C@H]1CN[C@H](C#Cc2cc3ncnc(Nc4ccc(OCc5cccc(F)c5)c(Cl)c4)c3s2)C1 2.62
CCOc1nccc2c1nc(-c1nonc1N)n2CC 3.59

Reported inhibition of CN(C)CCCn1c(-c2nonc2N)nc2cnccc21 : 4.33

Reported inhibition of CN(C)c1cc2c(Nc3ccc4c(cnn4Cc4ccccc4)c3)ncnc2cn1 : 8.41

Reported inhibition of CC(C)c1ccc(Nc2nccc(-c3cnn4ncccc34)n2)cc1 : 64.1

Reported inhibition of COC(=O)c1ccc2c(c1)C(=Cc1cc(Br)c(O)c(Br)c1)C(=O)N2 : 3

Reported inhibition of CN1CCN(C(=O)c2ccc(NC(=O)Nc3ccc(N(C)c4ccnc(Nc5ccc(CS(C)(=O)=O)cc5)n4)cc3)cc2)CC1 : 9.53

Reported inhibition of Cc1ccc2c(c1)/C(=N/Nc1ccc(S(N)(=O)=O)cc1)C(=O)N2 : 4.99

Reported inhibition of O=S(=O)(CCOCc1ccc(-c2ccc3ncnc(Nc4ccc(OCc5cccc(F)c5)c(Cl)c4)c3c2)o1)c1ccccc1 : 4.26

Reported inhibition of COC(=O)Nc1nc2cc(Oc3ccc(NC(=O)Nc4cccc(Br)c4)cc3)ccc2[nH]1 : 7.22

Reported inhibition of Cc1ccc(C(=O)NC2CC2)cc1-c1ccc2[nH]ncc2c1 : -2.31

Reported inhibition of NS(=O)(=O)c1cccc(Nc2cc(-c3ccc(F)cc3)n[nH]2)c1 : 11.3

Reported inhibition of Cc1ccc(NC(=O)CC2CC2)cc1-c1ccc(C(=O)NCC2CC2)cc1 : 1.31
